Reported melting point is given for each of the following molecules.

molecule="COC(=O)c1cn(-c2cc(C(=O)Nc3cc(C(C)(C)C)cc(NS(C)(=O)=O)c3OC)ccc2Cl)nn1 [Example 8]" result="251 to 252 °C (dec.)"

Recorded result, COc1c(NC(=O)c2ccc(C)c(-n3nnc(C(=O)NCC(C)(C)C)c3N)c2)cc(C(C)(C)C)cc1NS(C)(=O)=O [Example 68] , melting point: 189 to 193 °C

melting point reported for this molecule COC(=O)c1cn(-c2cc(C(=O)Nc3cc(C(C)(C)C)cc(NS(C)(=O)=O)c3OC)cc(C)c2C)nn1 [Example 16] : 199 °C

Data point: COc1c(NC(=O)c2cc(C)c(C)c(-n3cc(C(=O)NCCN4CCOCC4)nn3)c2)cc(C(C)(C)C)cc1NS(C)(=O)=O [Example 28] ; melting point = 206 to 209 °C (dec.)

Briefly, melting point measured for COc1c(NC(=O)c2ccc(C)c(-n3cc(C(=O)NCc4ccccc4)nn3)c2)cc(C(C)(C)C)cc1NS(C)(=O)=O [Example 24] : 205 to 207 °C

COC(=O)c1cn(-c2cc(C(=O)Nc3cc(C(C)(C)C)cc(NS(C)(=O)=O)c3OC)ccc2C)nn1 [Example 1] has a reported melting point of 198 °C

Lab note: COc1c(NC(=O)c2ccc(C)c(-n3cc(C(N)=O)nn3)c2)cc(C(C)(C)C)cc1NS(C)(=O)=O [Example 66] gave melting point of > 250 °C

// COC(=O)c1nnn(-c2cc(C(=O)Nc3cc(C(C)(C)C)cc(NS(C)(=O)=O)c3OC)ccc2C)c1N [Example 9] : melting point value = 204 to 205 °C
